Values compiled from PubChem BioAssay (NCI).

Test system: M14 melanoma
assay_explanation: NCI tumour cell line growth inhibition, 48 h
measured_metric: TGI

Input: For the compound "CC#CC#C/C(=C/C=CC(=O)OC)SC" , what TGI is on record?
Output: > 100 µM

Input: For the compound "CN1C2(c3ccccc3)C(C(=O)c3ccccc3)=C(C(=O)c3ccccc3)C1(c1ccccc1)c1c(-c3ccccc3)sc(-c3ccccc3)c12" , what TGI is on record?
Output: > 100 µM

Input: For the compound "COc1cc2c(cc1-c1coc3cc(O)ccc3c1=O)OCO2" , what TGI is on record?
Output: > 100 µM

Input: For the compound "Cc1c(C#N)c2nc3ccccc3n2c(=O)/c1=C/Nc1ccc(Cl)cc1" , what TGI is on record?
Output: 40.9 µM

Input: For the compound CC1CC(=O)Nc2ccccc2N1C(=O)C1CC1 (stereo not drawn) , what TGI is on record?
Output: > 100 µM

Input: For the compound CC(C)C1=CC2=C(C(=O)C1=O)C13CCCC(C)(C)C1CC2OC3=O (stereo not drawn) , what TGI is on record?
Output: 70.6 µM

Input: For the compound CC(C)C(CCOS(=O)(=O)O)CCC(C)[C@H]1[C@@H](O)C(O)C2[C@]3(O)C[C@@H](O)C4(O)C[C@@H](O)CC[C@]4(C)C3CC[C@@]21C (stereo partly drawn) , what TGI is on record?
Output: > 100 µM

Input: For the compound "CN(C)C1CN(C(=O)c2cc(-c3ccc4ncnc(N5CCc6cc(F)c(Cl)cc65)c4c3)cnc2N)C1" , what TGI is on record?
Output: > 100 µM

Input: For the compound "O=C1OC(c2ccccc2Br)=N/C1=C/c1ccccc1" , what TGI is on record?
Output: 41.1 µM

Input: For the compound Nc1n[nH]c2ccc([C@@H]3Nc4ccc5cn[nH]c5c4[C@H]4C5CCC(C5)[C@@H]34)cc12 (stereo partly drawn) , what TGI is on record?
Output: > 100 µM

Input: For the compound "O=C(CN1CCN(C(=O)c2ccco2)CC1)Nc1ccc(Cl)cc1C(=O)c1ccccc1Cl" , what TGI is on record?
Output: 28.1 µM

Input: For the compound O=C(NN1C(=O)CSC1c1c(Cl)cccc1Cl)C(O)c1ccccc1 (stereo not drawn) , what TGI is on record?
Output: > 100 µM

Input: For the compound "CC(C)=CCc1cc(/C=C/C(=O)O)cc(CC=C(C)C)c1O" , what TGI is on record?
Output: > 100 µM

Input: For the compound CC1CCc2c(sc3ncnc(N/N=C/c4ccc(Cl)cc4)c23)C1 (stereo not drawn) , what TGI is on record?
Output: 68.2 µM

Input: For the compound "Cn1cnc(C(=N)[Se])c1N" , what TGI is on record?
Output: > 100 µM

Input: For the compound "C=C1CC[C@@H]2[C@](C)(COC(=O)CCC(=O)O)CCC[C@@]2(C)[C@@H]1CCC1=CC(=O)OC1" , what TGI is on record?
Output: > 100 µM

Input: For the compound O=C(CC(=O)N1N=C(N(c2ccccc2)c2ccccc2)CC1c1ccccc1)Nc1cccc(Cl)c1 (stereo not drawn) , what TGI is on record?
Output: > 100 µM

Input: For the compound "COC(=O)C1Cc2cc3c(cc2C1)CCC3" , what TGI is on record?
Output: > 100 µM

Input: For the compound "COc1ccc(-c2cc(=O)c3cc(O)ccc3o2)c(OC)c1OC" , what TGI is on record?
Output: > 100 µM

Input: For the compound "CN(/N=C/C=N/N(C)C1=NCCN1)C1=NCCN1" , what TGI is on record?
Output: > 100 µM

Input: For the compound "COc1cc(N2CCC(N)CC2)ccc1Nc1ncc(Cl)c(-c2c[nH]c3ccccc23)n1" , what TGI is on record?
Output: 1.73 µM

Input: For the compound "COc1ccc2nc3cc(Cl)ccc3c(NCCCCCC(=O)NC(COc3ccc4ccc5cccnc5c4n3)COc3ccc4ccc5cccnc5c4n3)c2c1" , what TGI is on record?
Output: 57.7 µM

Input: For the compound "CCN(CC)CCSc1c(C(C)=O)c(=O)n(-c2ccccc2)c(=S)n1-c1ccccc1" , what TGI is on record?
Output: 4.12 µM

Input: For the compound "O=C(/C=C/c1cccc(Br)c1)N1CCN(CCOC(c2ccccc2)c2ccccc2)CC1" , what TGI is on record?
Output: > 100 µM

Input: For the compound "NS(=O)(=O)c1ccc(NC(=O)c2ccc3nc4ccccc4c(Nc4ccc(S(N)(=O)=O)cc4)c3c2)cc1" , what TGI is on record?
Output: > 100 µM

Input: For the compound "Cc1ccc(-c2cc(=O)c(=O)[nH][nH]2)cc1" , what TGI is on record?
Output: > 100 µM

Input: For the compound CC(=O)OCC1OC(O[C@H]2C=C[C@@H](C(=O)OCc3ccccc3)n3c(=O)n(-c4ccccc4)c(=O)n32)C(OC(C)=O)C(OC(C)=O)C1OC(C)=O (stereo partly drawn) , what TGI is on record?
Output: 2.95 µM

Input: For the compound C[C@]12CCc3nn(-c4ccccc4)nc3C1CC[C@@H]1C2CC[C@]2(C)C(=O)CCC12 (stereo partly drawn) , what TGI is on record?
Output: > 100 µM

Input: For the compound "Fc1ccc(N=C2C=CC(=Nc3ccc(F)cc3)c3ccccc32)cc1" , what TGI is on record?
Output: > 100 µM

Input: For the compound "Cn1c(=O)c2c(=O)cc(N)[nH]c2n(C)c1=O" , what TGI is on record?
Output: > 100 µM

Input: For the compound "COCCn1c2c([n+](Cc3cnccn3)c1C)C(=O)c1ccccc1C2=O" , what TGI is on record?
Output: 0.0505 µM

Input: For the compound "CC(C)C(/C=C/c1ccc(Cl)cc1)=N\NC(=O)N/N=C(/C=C/c1ccc(Cl)cc1)C(C)C" , what TGI is on record?
Output: 60 µM

Input: For the compound "Cc1cc(N=Cc2c(CO)cnc(C)c2O)c(N=Cc2c(CO)cnc(C)c2O)cc1C" , what TGI is on record?
Output: > 100 µM

Input: For the compound "O=C(Nc1cccc(-n2cc(-c3ccncc3)c(-c3ccc(Cl)c(O)c3)n2)c1)Nc1ccc(Cl)c(Cl)c1" , what TGI is on record?
Output: 6.97 µM

Input: For the compound "CCOc1ccc2c(c1)C(=O)c1c-2n(CCCN=[N+]=[N-])c(=O)c2cc([N+](=O)[O-])ccc12" , what TGI is on record?
Output: > 100 µM

Input: For the compound "COc1ccc(/C=C/C(=O)CCN2CCN(CCC(=O)/C=C/c3ccc(OC)cc3)CC2)cc1" , what TGI is on record?
Output: 32.5 µM

Input: For the compound "O=C1c2ccccc2C(=O)N1NC1=NCCN1" , what TGI is on record?
Output: > 100 µM

Input: For the compound C=C(C)CCC(O)[C@](C)(O)[C@H]1[C@H](O)C[C@@]2(C)[C@@H]3CCc4c(cc(OC5OC(CO)C(O)C(O)C5O)c(O)c4C)C3(C)C(=O)C[C@]12C (stereo partly drawn) , what TGI is on record?
Output: > 100 µM

###

Give measured TGI for each item. Keep answers brief.
Test system: RXF 393 renal
assay_explanation: NCI tumour cell line growth inhibition, 48 h

Input: For the compound "O=C(O)c1ccc(Nc2cnc3cc(C(F)(F)F)ccc3n2)cc1" , what TGI is on record?
Output: > 100 µM

Input: For the compound Cc1ccc(NC(=O)CC2SC(=Nc3ccc(Cl)cc3)NC2=O)cc1C (stereo not given) , what TGI is on record?
Output: 32 µM

Input: For the compound "S=C(S)NCCN1CCNCC1" , what TGI is on record?
Output: 64.3 µM

Input: For the compound CC(C)CC1N=C(OCc2ccccc2)OC1=O (stereo not given) , what TGI is on record?
Output: > 100 µM

Input: For the compound "C=C(Br)COc1ccc2c(C)cc(=O)oc2c1" , what TGI is on record?
Output: 81 µM

Input: For the compound "O=c1oc2ccccc2n1P(=O)(Oc1ccc(Cl)cc1)n1c(=O)oc2ccccc21" , what TGI is on record?
Output: > 100 µM

Input: For the compound "Cc1ccc(S(=O)(=O)Nn2c(S)c(C#N)c(-c3ccc(Cl)cc3)c(C#N)c2=O)cc1" , what TGI is on record?
Output: > 100 µM

Input: For the compound CCCCCCCCCC[C@H](O)[C@H]1CC[C@@H]([C@@H](O)CC[C@H](O)[C@@H]2CCC(CCCCCCC[C@@H](O)CC3=C[C@H](C)OC3=O)O2)O1 (stereo not given in full) , what TGI is on record?
Output: 19.8 µM

Input: For the compound "COC(=O)[C@H](Cc1ccccc1)NC(=O)N(CCNC(=O)OC(C)(C)C)c1ccccc1" , what TGI is on record?
Output: > 100 µM

Input: For the compound "COc1cc(C(=O)NN=C2c3ccccc3-c3ccccc32)cc(OC)c1OC" , what TGI is on record?
Output: 29.3 µM
